Target Or System: Sodium- and chloride-dependent glycine transporter 1 (Rattus norvegicus, UniProt P28572)
Sequence (P28572 whole entry): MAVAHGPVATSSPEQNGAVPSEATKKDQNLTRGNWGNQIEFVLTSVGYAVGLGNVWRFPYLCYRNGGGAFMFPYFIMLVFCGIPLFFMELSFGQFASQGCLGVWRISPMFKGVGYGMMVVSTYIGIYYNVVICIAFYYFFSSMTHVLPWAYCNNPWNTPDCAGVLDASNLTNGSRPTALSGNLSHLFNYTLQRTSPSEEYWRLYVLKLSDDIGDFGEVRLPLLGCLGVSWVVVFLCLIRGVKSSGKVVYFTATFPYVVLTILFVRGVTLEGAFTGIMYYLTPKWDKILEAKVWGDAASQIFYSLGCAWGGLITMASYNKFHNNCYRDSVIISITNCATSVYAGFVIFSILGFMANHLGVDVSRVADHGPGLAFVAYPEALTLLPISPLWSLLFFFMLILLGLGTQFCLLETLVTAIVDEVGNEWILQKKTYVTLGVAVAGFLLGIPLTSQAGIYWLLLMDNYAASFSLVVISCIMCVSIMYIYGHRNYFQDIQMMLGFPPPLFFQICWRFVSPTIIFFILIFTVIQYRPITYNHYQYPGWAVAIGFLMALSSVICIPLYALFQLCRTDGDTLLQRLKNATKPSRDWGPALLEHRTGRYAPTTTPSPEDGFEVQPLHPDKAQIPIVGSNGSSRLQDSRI
Experiment Summary: Displacement of [3H]glycine from rat GlyT1 expressed in rat C6 cells after 30 mins by scintillation counting
Reported Endpoint: IC50 (µM)

1 = CCc1nnc(-c2ccc(-c3ccccc3)cc2)n1-c1cccc2nc[nH]c12
2 = CCc1nnc(-c2ccc(-c3ccccc3)cc2)n1-c1ccnc2ccccc12
Please indicate which entry, 1 or 2 , has the lower recorded IC50 value. Indicate your choice by writing its label.
2

a = CCc1nnc(-c2ccc(-c3ccccc3)cc2)n1-c1cccc2cn[nH]c12
b = CCc1nnc(-c2ccc(-c3ccccc3)cc2)n1-c1cccc2ccn(C)c12
Please indicate which entry, a or b , has the lower recorded IC50 value. Indicate your choice by writing its label.
b
(b: 3 µM, a: 5.6 µM)
